# TGI annotations
system: SNB-19 CNS; test: NCI tumour cell line growth inhibition, 48 h

{"molecule": "CCCCCCCCCCCCCCCCc1c(C(=O)OC)nc(NN)[nH]c1=O", "TGI": "> 50 µM"}
{"molecule": "COc1cc(C2c3cc4c(cc3OC(NCCc3ccccc3)C2C)OCO4)cc(OC)c1OC (centres undefined)", "TGI": "> 100 µM"}
{"molecule": "CN(C)C=NC1CCC(C(C)(C)C)CC1 (centres undefined)", "TGI": "39.9 µM"}

(Q) TGI lookup needed for COc1ccc(C(=O)O[C@H]2[C@H](O[C@H]3[C@@H](O)COC(O[C@H]4C[C@H]5[C@@H]6CC=C7C[C@@H](O)CC[C@]7(C)[C@H]6CC[C@]5(C)[C@H]4[C@H](C)C(=O)CCC(C)C)[C@@H]3OC(C)=O)OC[C@@H](O)[C@@H]2O)c(C)c1 (some centres undefined) , thanks.
(A) 10.3 µM

(Q) Continue with O=C(O)C(O)C(O)C(O)C(O)C(=O)O (centres undefined)
(A) > 100 µM

(Q) Next: CC(C)CC1c2[nH]c3ccccc3c2C[C@H]2C(=O)NC(CCCCNC(=O)OC(C)(C)C)C(=O)N12 (some centres undefined)
(A) > 100 µM

----------
system: NCI-H23 lung; test: NCI tumour cell line growth inhibition, 48 h
Measured TGI, listed per entry.

Solved entries:
{"compound": "COC1=C(OC)C(=O)C(Sc2ccc3ccccc3c2)=CC1=O", "TGI": "33.1 µM"}
{"compound": "CCOC(=O)/C(C#N)=C1\\SS/C(=C(/C#N)C(=O)OCC)S1", "TGI": "61.2 µM"}
{"compound": "O=C(CC(c1ccccc1)C1C(=O)NC(=S)NC1=O)c1ccc([N+](=O)[O-])cc1 (configuration not stated)", "TGI": "> 100 µM"}
{"compound": "C(=Nc1cnc2ccccc2c1)c1ccc2ccccc2n1", "TGI": "> 100 µM"}
{"compound": "COC(=O)c1cc(NC(=O)c2cc(NC(=O)Cc3c[nH]c4ccccc34)cn2C)cn1C", "TGI": "83.5 µM"}
{"compound": "N#C/C(=C\\c1cc(O)ccc1O)C(N)=O", "TGI": "> 100 µM"}

(Q) Give NCI-H23 lung TGI for C/C(=N\NC(=S)NC(CCC(=O)O)C(=O)O)c1cnccn1 (configuration not stated)
(A) > 100 µM

(Q) How about CCN(CC)CCN1C(=O)C2C3C(=O)CC(C)(CC3C)C2C1=O (configuration not stated) ?
(A) > 100 µM

(Q) Record: CCOC(=O)c1c(-c2cccc(Cl)c2)c(C(=O)OC)c(C)c2sc(C=O)nc12
(A) > 100 µM

(Q) And the next one, O/C(=C\c1nc2ccccc2nc1/C=C(\O)c1ccc(F)cc1)c1ccc(F)cc1 ?
(A) > 100 µM

(Q) Please give the result for Clc1ccc2ncc(-c3cccc(NC4CNC4)n3)n2c1 too.
(A) 36.3 µM

(Q) And for COc1cc(-c2ccc(NC(=O)SCCC(=O)O)cc2OC)ccc1NC(=O)SCCC(=O)O ?
(A) > 100 µM

(Q) Now the compound Cc1cc(C)c2c(=O)n(CC(O)CN3CCN(CCOCCO)CC3)sc2n1 (configuration not stated)
(A) 30.3 µM

(Q) Further, for CC(C)CC(NP(=O)(O)OC1OC(C)C(O)C(O)C1O)C(=O)NC(Cc1c[nH]c2ccccc12)C(=O)O (configuration not stated) ?
(A) > 100 µM

(Q) Try this compound next: O=C(CCl)Nc1cc(Cl)c(Cl)cc1Cl
(A) 3.28 µM

(Q) c1ccc(-c2c3c(nc4c2CC[C@H]4NC2=NCCN2)[C@@H](NC2=NCCN2)CC3)cc1 , same question.
(A) > 100 µM

(Q) Can you handle COC(=O)C1=C(OC(=O)/C=C/c2ccc(Cl)cc2)C(C(=O)OC)[C@]2(O)[C@@H](C(=O)OC)[C@H]1C[C@@H](c1ccccc1)[C@@H]2C(=O)OC (some centres not stated) next?
(A) > 25.1 µM

----------
system: 786-0 renal; experiment: NCI tumour cell line growth inhibition, 48 h; in the data active = GI50 below about 0.43 µM; inactive = the rest
Respond using exactly one of the listed classes: active, inactive

{"molecule": "OCc1ccc(N2CCc3cc(F)ccc3C2)cc1Cl", "assayed-target": "786-0 renal", "assigned-label": "inactive"}
{"molecule": "C/C(=N/O)c1ccc2c(c1)/C(=N/O)c1ccccc1-2", "assayed-target": "786-0 renal", "assigned-label": "inactive"}
{"molecule": "CCN(CC)c1ccc2nc3c4ccccc4c(=O)cc-3n(-c3ccccc3)c2c1", "assayed-target": "786-0 renal", "assigned-label": "inactive"}
{"molecule": "CC(C)(C)NC(=O)[C@H]1CC[C@H]2[C@@H]3CC[C@H]4NC(=O)C=C[C@]4(C)[C@H]3CC[C@]12C", "assayed-target": "786-0 renal", "assigned-label": "inactive"}
{"molecule": "CCOC(=O)/C(C#N)=C1\\SS/C(=C(/C#N)C(=O)OCC)S1", "assayed-target": "786-0 renal", "assigned-label": "inactive"}
{"molecule": "COc1ccc(-c2[nH]nc(N)c2-c2cc(OC)c3c(c2)OCO3)cc1", "assayed-target": "786-0 renal", "assigned-label": "inactive"}
{"molecule": "COc1cc(/C=C/C(=O)/C=C/c2cc3ccc(Cl)cc3n(Cc3ccccc3)c2=O)ccc1O", "assayed-target": "786-0 renal", "assigned-label": "inactive"}
{"molecule": "Cc1ccc(NC(=O)Nc2c(Cl)cccc2Cl)cn1", "assayed-target": "786-0 renal", "assigned-label": "inactive"}
{"molecule": "CN1CCN(c2ccc(NC(=O)c3cncnc3Nc3ccc(OCc4cccc(F)c4)c(Cl)c3)cc2)CC1", "assayed-target": "786-0 renal", "assigned-label": "inactive"}
{"molecule": "CC(=O)OC(C)(C)/C=C/C(=O)[C@](C)(O)[C@H]1[C@H](O)C[C@@]2(C)[C@@H]3CC=C4[C@@H](C=C(O)C(=O)C4(C)C)[C@]3(C)C(=O)C[C@]12C", "assayed-target": "786-0 renal", "assigned-label": "active"}

(Q) State the result this test recorded for O=c1c2ccccc2nc(-c2ccccc2Cl)n1-c1nnc(C(F)(F)F)s1 .
(A) inactive

(Q) Also CCCCCCCCCCCCCCCCCCOc1ccccc1CC(=O)OCC[N+](CC)(CC)CC ?
(A) inactive

(Q) Please answer likewise for CCN(CC)CCC(CNc1ccnc2cc(Cl)ccc12)c1ccccc1 (stereo not drawn)
(A) inactive

(Q) Would you mind doing Cc1nc(-c2cnc(NC(C)C)n(C)c2=O)ccc1Oc1ccnc(-c2cnn(C)c2)c1 as well?
(A) inactive

(Q) Now give it for Cc1ccc(-c2nc(N3CCNCC3)c3oc(-c4ccccc4)nc3n2)cc1 too.
(A) inactive

(Q) What do you get for C=C1C(=O)O[C@H]2[C@H]1CC/C(Cn1cc(-c3cccc(Cl)c3)nn1)=C\CC[C@@]1(C)O[C@@H]21 ?
(A) inactive

(Q) # repeat for Cc1c(-c2ccc(O)cc2)oc(=O)c2ccc(O)cc12
(A) inactive

(Q) Now this one: NC(=O)CC1(O)C=C(Br)C(=O)C(Br)=C1
(A) inactive

----------
Listed here: items and their measured TGI.
test system: PC-3 prostate; assay: NCI tumour cell line growth inhibition, 48 h

Worked examples follow.
{"molecule": "CCCC(C)NC(=O)c1ccc(N(C)Cc2cnc3nc(N)nc(N)c3n2)cc1 (stereo unspecified)", "measurement-type": "TGI", "recorded-value": "> 100 µM"}
{"molecule": "COC(=O)c1cc(NC(=O)c2cc(NC(=O)Cc3c[nH]c4ccccc34)cn2C)cn1C", "measurement-type": "TGI", "recorded-value": "96.2 µM"}
{"molecule": "COc1ccc(C(=O)O[C@H]2[C@H](O[C@H]3[C@@H](O)COC(O[C@H]4C[C@H]5[C@@H]6CC=C7C[C@@H](O)CC[C@]7(C)[C@H]6CC[C@]5(C)[C@H]4[C@H](C)C(=O)CCC(C)C)[C@@H]3OC(C)=O)OC[C@@H](O)[C@@H]2O)c(C)c1 (stereo partly specified)", "measurement-type": "TGI", "recorded-value": "2.14 µM"}

(Q) // TGI lookup, key: COc1ccc(-c2[nH]nc(N)c2-c2cc(OC)c3c(c2)OCO3)cc1
(A) > 100 µM

(Q) Same for C=C1C(=O)O[C@H]2C/C(C)=C/CC[C@]3(C)CCC[C@](C)(CC[C@@H]12)O3
(A) 41.5 µM

(Q) Entry to check: COc1ccc(NC(=O)CC(=O)NNC(Sc2ccccc2)c2cc(N=Nc3ccc(Br)cc3)ccc2O)cc1 (stereo unspecified)
(A) > 10 µM

(Q) Okay, and COc1ccccc1/C=C/C1=C(C)CCC(c2ccccc2OC)C1C (stereo unspecified) ?
(A) > 100 µM

(Q) Lookup O=C(Nc1ccccc1C(F)(F)F)c1ccc(NC2=C(Cl)C(=O)N(Cc3ccccc3)C2=O)cc1
(A) > 100 µM

(Q) Field entry: OCCCSCCO
(A) > 100 µM

(Q) Please do the same for Cc1oc(N)c(S(=O)(=O)c2cc3ccccc3n(O)c2=N)c1C as well.
(A) > 100 µM

(Q) Then this molecule: COc1ccc(-c2nn(-c3ccc(NC(=O)c4cc(Cl)cc(Cl)c4)cc3)cc2-c2ccncc2)cc1Cl
(A) > 100 µM

(Q) Again, but for Cc1cc(S(=O)(=O)Nc2n[nH]c(Nc3ccc4ccccc4c3)n2)c(S)cc1Cl
(A) > 100 µM

(Q) Next entry: c1ccc(-c2c3c(nc4c2CC[C@H]4NC2=NCCN2)[C@@H](NC2=NCCN2)CC3)cc1
(A) > 100 µM

(Q) Also COC(=O)c1nn2ccc3ccccc3c2c1C(=O)OC , if possible.
(A) > 100 µM

(Q) Consider next the molecule C(=Nc1cnc2ccccc2c1)c1ccc2ccccc2n1 in the same way.
(A) > 100 µM

(Q) Would you mind doing COc1ccc(-n2c3c(c4cc(O)ccc42)Cc2ccccc2C3=O)cc1 as well?
(A) 15.3 µM

Where do these numbers come from? They come from PubChem BioAssay (NCI).
